Reported pKi is given for each of the following compounds.
- Tgt: CDK4/Cyclin D1 (Homo sapiens (Human))
- Sequence (P11802 whole entry): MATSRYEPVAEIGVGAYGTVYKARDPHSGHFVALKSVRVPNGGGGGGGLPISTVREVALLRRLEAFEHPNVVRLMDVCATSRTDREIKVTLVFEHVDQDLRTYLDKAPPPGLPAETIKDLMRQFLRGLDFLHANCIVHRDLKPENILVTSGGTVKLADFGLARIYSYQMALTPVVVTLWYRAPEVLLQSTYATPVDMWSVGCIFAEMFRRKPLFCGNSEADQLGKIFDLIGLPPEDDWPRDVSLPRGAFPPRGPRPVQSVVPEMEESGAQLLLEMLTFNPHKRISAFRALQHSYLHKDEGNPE
- Sequence (P24385 whole entry partner): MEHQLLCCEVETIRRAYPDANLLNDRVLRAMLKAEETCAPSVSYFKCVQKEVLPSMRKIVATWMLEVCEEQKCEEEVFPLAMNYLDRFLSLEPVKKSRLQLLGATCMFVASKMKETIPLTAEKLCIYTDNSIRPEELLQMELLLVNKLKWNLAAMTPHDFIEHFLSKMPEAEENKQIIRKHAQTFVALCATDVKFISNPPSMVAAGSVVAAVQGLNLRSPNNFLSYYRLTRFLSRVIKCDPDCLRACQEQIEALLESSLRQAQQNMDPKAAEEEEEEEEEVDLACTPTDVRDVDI
- Experiment notes: CDK4/Cyclin D1 mobility shift assay
- Type: biochemical
- Recorded conditions: activated CDK4/Cyclin D1, 3.5 mM ATP, Morrison fit; read-out: CDK4D1 Ki
Interpret pKi as the negative base-10 log of the concentration measured in mol/L.

A selection of reference data follows.
C[C@@H](N)c1nc2c(F)cc(-c3nc(N[C@@H]4CCOC[C@H]4O)ncc3Cl)cc2n1C(C)(C)C
8.22
CC(C)(F)Cn1c(CO)nc2c(F)cc(-c3nc(N[C@@H]4CCOC[C@H]4O)ncc3Cl)cc21
8.70
CC(C)(C)n1cnc2c(F)cc(-c3cc(N[C@@H]4CCN(C(=O)C(F)(F)CN)C[C@H]4O)ncc3Cl)cc21
9.05

In the following, a different compound is considered.
Recorded result, Cn1nc2ccc(-c3nc(N[C@@H]4CCN(S(C)(=O)=O)C[C@H]4O)ncc3Cl)cc2c1C(C)(C)O , pKi: 9.22
